Assay: Confirmation screen for delayed death inhibitors of the malarial parasite plastid, 96 hour incubation; note: nearly all actives have a fitted effect of over 60% in size
Settings: P. falciparum luciferase growth in erythrocytes; series mostly up to 28.7 µM
Excerpt: The goal of this screen is to discover new antimalarial compounds that act by inhibiting the development of the apicoplast in the malarial parasite Plasmodium falciparum. The biochemical processes that make this organelle essential for erythrocytic stage parasites are not well understood. […] Growth inhibition is detected by a decrease in luciferase activity. […]
Among all 2,300 compounds or so, about 1,400 (61%) were called active. Another 29% or so got no clear call; they are omitted. Calls come from the whole dose curve; as a rule, active = well fitted inhibition curve with a large enough effect; inconclusive = small, poorly fitted or top-dose-only effect, or effect the other way; inactive = no such curve, though single readings can be large or run the other way. So high a share suggests a set chosen from earlier hits. The list shows a part of the results.
Possible outcomes: Yes for active, No for inactive

{"compound": "O=C(CSc1nc2cc([N+](=O)[O-])ccc2n1-c1ccccc1)NCc1ccc2c(c1)OCO2", "answer_label": "Yes"}
{"compound": "C(=C\\c1nc(N2CCCCCC2)c2ccccc2n1)/c1ccccc1", "answer_label": "Yes"}
{"compound": "O=c1cc(CSc2ccc(Cl)cc2)nc(-c2ccccn2)[nH]1", "answer_label": "Yes"}
{"compound": "CC(C)c1ccc(/C=C2\\SC(=S)N(CCC(=O)N3CCCCC3CCO)C2=O)cc1 (stereo unspecified)", "answer_label": "Yes"}
{"compound": "O=C(CNC(=O)c1ccco1)OCC(=O)c1ccccc1", "answer_label": "No"}
{"compound": "COc1ccc(S(=O)(=O)N2CCCN(S(=O)(=O)c3ccc(OC)c(C)c3)CC2)cc1C", "answer_label": "Yes"}
{"compound": "CCOC(=O)N1CCN(C(=O)c2ccc3c(c2)N(Cc2cc(C)ccc2C)C(=O)c2ccccc2S3=O)CC1 (stereo unspecified)", "answer_label": "Yes"}
{"compound": "C=CCN(CC=C)C(=O)C1CCN(S(=O)(=O)c2ccc(N3CCCC3=O)cc2)CC1", "answer_label": "Yes"}
{"compound": "O=C(c1ccc2c(c1)N(Cc1cccc(Cl)c1)C(=O)c1ccccc1S2(=O)=O)N1CCN(c2ccccn2)CC1", "answer_label": "Yes"}
{"compound": "CCc1ccc(OCCNC(=O)c2ccccc2SCc2ccccc2)cc1", "answer_label": "Yes"}
{"compound": "CC(C)C(=O)NC(=S)Nc1ccc(S(=O)(=O)NC2CCCCC2)cc1", "answer_label": "No"}
{"compound": "COc1cccc(/C=C2\\SC(=S)N(CCC(=O)N3CCCCC3CCO)C2=O)c1 (stereo unspecified)", "answer_label": "Yes"}
{"compound": "CC(C)(C)c1ccc(C(O)CCCN2CCC(C(O)(c3ccccc3)c3ccccc3)CC2)cc1 (stereo unspecified)", "answer_label": "Yes"}
{"compound": "O=C(NC(=C(Cl)Cl)S(=O)(=O)c1ccc(Cl)cc1)c1ccccc1", "answer_label": "No"}
{"compound": "C=CCSC(=C(C#N)C#N)c1cc2c([nH]1)CCCC2", "answer_label": "Yes"}
{"compound": "CC(C)NS(=O)(=O)c1ccc(NC(=S)NC(=O)c2ccc(-c3ccccc3)cc2)cc1", "answer_label": "Yes"}
{"compound": "COc1ccc(C(=O)Nc2nnc(S(=O)(=O)N3CCOCC3)s2)cc1", "answer_label": "Yes"}
{"compound": "COC(=O)c1cn(C)c2ccc(S(=O)(=O)N3CCCC3)cc2c1=O", "answer_label": "No"}
{"compound": "COc1ccc(Cn2c(O)c(C=Nc3ccc(O)cc3)c3ccccc3c2=O)cc1", "answer_label": "Yes"}
{"compound": "Cc1oc2c(c1C(=O)N1CCOCC1)C(=O)c1ccccc1C2=O", "answer_label": "Yes"}
{"compound": "COc1ccc(OCCOc2ccc(S(=O)(=O)N3CCCC3)cc2C(N)=O)cc1", "answer_label": "Yes"}
